The measured values listed here are drawn from PubChem BioAssay.

- targetOrSystem: Calmodulin-1 (Homo sapiens) (UniProt P0DP23)
- assaySummary: calcium-bound CALM1 binders on microarrays, profiling panel, artefact control for SMM control-protein annotation, biochemical, small-molecule microarray, Cy5-labelled CALM1, plus calcium (AID 1112);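 further: score merges spot fluorescence with signal to noise from triplicate slides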
- assayContext: Cy5-CALM1 binding fluorescence, higher = more signal
endpointName: composite z-score

>  <molecule>
COc1ccc(C(=O)Nc2cccc(CN3C(=O)[C@@]4(O[C@@H](CCn5cc(CCO)nn5)[C@H]([Si](C)(C)c5ccc(OC)cc5)[C@H]4C)c4ccccc43)c2)cc1

>  <recordedMeasurement>
0.308

$$$$
>  <molecule>
Cc1ccc(F)cc1S(=O)(=O)N[C@@H]1CCN(Cc2ccc(-c3ccccc3)cc2)C1

>  <recordedMeasurement>
-0.578

$$$$
>  <molecule>
COCCOC(=O)N1C(=O)[C@@]2(c3cc(C#CC4=CCCCC4)ccc31)[C@H](C(=O)N1CCc3cc(OC)c(OC)cc3C1)[C@H]1C(=O)O[C@H](c3ccccc3)[C@H](c3ccccc3)N1[C@@H]2c1ccccc1OCCO

>  <recordedMeasurement>
0.512

$$$$
>  <molecule>
COc1ccc([Si](C)(C)[C@H]2[C@H](CCn3cc([C@H](O)c4ccccc4)nn3)O[C@@]3(C(=O)N(Cc4cccc(N5CCC5=O)c4)c4ccccc43)[C@@H]2C)cc1

>  <recordedMeasurement>
0.193

$$$$
>  <molecule>
C=CCC(OC(C)=O)[C@@H]1[C@@H](N(Cc2ccc(-c3ccccc3)cc2)C(=O)Cc2ccc(OC)cc2)c2cc(OCCCO)ccc2N1C(=O)c1ccc2ccccc2n1 (stereo partly specified)

>  <recordedMeasurement>
1.01

$$$$
>  <molecule>
C=CC[C@@]1(C(=O)NCC(O)CO)N=C(c2ccc(OCCCO)cc2)O[C@@H]1c1ccccc1N=[N+]=[N-] (stereo partly specified)

>  <recordedMeasurement>
0.643

$$$$
